ASSAY_SYSTEM: JAK2 kinase domain (JH1) (Homo sapiens (Human), UniProt O60674)
Sequence (O60674 849-1124): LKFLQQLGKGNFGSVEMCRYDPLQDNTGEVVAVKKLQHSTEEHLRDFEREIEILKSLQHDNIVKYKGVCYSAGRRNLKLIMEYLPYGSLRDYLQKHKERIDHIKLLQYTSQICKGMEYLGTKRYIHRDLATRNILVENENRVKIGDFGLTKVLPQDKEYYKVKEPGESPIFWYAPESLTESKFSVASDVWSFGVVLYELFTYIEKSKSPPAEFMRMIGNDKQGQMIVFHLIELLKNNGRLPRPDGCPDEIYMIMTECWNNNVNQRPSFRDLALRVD
ASSAY_NOTES: JAK2 Radioactive Kinase Assay
Type: biochemical
TEST_CONTEXT: compound at 10 μM; ATP 10 μM; read-out: JAK2 JH1% Inhibition @ 10 μM
# inhibition at 10 µM per entry
OUTCOME_MEASURE: inhibition at 10 µM

[[record]]
compound = "CNc1cc(Nc2cc(C)cn(-c3cnn(C)c3)c2=O)nc2c(C(N)=O)cnn12 [I-31]"
outcome_measure = "inhibition at 10 µM"
value = "< 50%"

[[record]]
compound = "CNc1cc(Nc2cccc([C@H]3CCCOC3)n2)nc2c(C(=O)NCC(C)(C)CO)cnn12 [I-579]"
outcome_measure = "inhibition at 10 µM"
value = "< 50%"

[[record]]
compound = "CNc1cc(Nc2cccn(-c3nc(C)co3)c2=O)nc2c(C(=O)NC[C@H](C)CO)cnn12 [I-736]"
outcome_measure = "inhibition at 10 µM"
value = "< 50%"

[[record]]
compound = "CNc1cc(Nc2cccn(C3=NC(C)(C)CS3)c2=O)nc2c(C(=O)NC3CCC3)cnn12 [I-503]"
outcome_measure = "inhibition at 10 µM"
value = "< 50%"

[[record]]
compound = "CNc1cc(Nc2cccn(-c3nc(C)co3)c2=O)nc2c(C(=O)NC3CCC3)cnn12 [I-386]"
outcome_measure = "inhibition at 10 µM"
value = "< 50%"

[[record]]
compound = "CNc1cc(Nc2cc(C)cnc2OC(C)C)nc2c(C(=O)NC3CCC3)cnn12 [I-213]"
outcome_measure = "inhibition at 10 µM"
value = "< 50%"

[[record]]
compound = "CNc1cc(Nc2cccn([C@@H]3CCCOC3)c2=O)nc2c(C(=O)NC3CC3)cnn12 [I-351]"
outcome_measure = "inhibition at 10 µM"
value = "< 50%"

[[record]]
compound = "CNc1cc(Nc2cccc3ocnc23)nc2c(C(=O)N[C@@H]3CC[C@H]3O)cnn12 (racemic) [I-756]"
outcome_measure = "inhibition at 10 µM"
value = "< 50%"


---

ASSAY_SYSTEM: human TYK2 (JH2domain-pseudokinase) (Homo sapiens (Human))
ASSAY_NOTES: TYK2 JH2 Domain Binding Assay (KINOMEscan)
pKd: −log10 of the molar value.
# pKd per entry
OUTCOME_MEASURE: pKd

[[record]]
compound = "CNc1cc(Nc2cccnc2OC)nc2c(C(=O)NCCC(C)(C)O)cnn12"
value = "9.00 to 9.70"

[[record]]
compound = "CNc1cc(Nc2cc(Cl)cnc2OC(C)C)nc2c(C(=O)NC3CC3)cnn12"
value = "9.00 to 9.70"

[[record]]
compound = "CNc1cc(Nc2cccn([C@@H]3CCC[C@@H](O)C3)c2=O)nc2c(C(=O)NC3CC3)cnn12"
value = "> 9.70"

[[record]]
compound = "CNc1cc(-c2cn(CCCO)c3ncccc23)nc2c(C(=O)N[C@H]3CC[C@@H]3OC)cnn12 [I-1388]"
value = "9.00 to 9.70"

[[record]]
compound = "CNc1cc(Nc2cccn([C@H]3CCCOC3)c2=O)nc2c(C(=O)NCC3(CO)CC3)cnn12"
value = "> 9.70"

[[record]]
compound = "CNc1cc(Nc2cccn(C3CCN(CCC#N)CC3)c2=O)nc2c(C(=O)NC3CC3)cnn12"
value = "> 9.70"

[[record]]
compound = "CNc1cc(Nc2cccn(C3CCCCC3)c2=O)nc2c(C(=O)N[C@H]3COC[C@H]3O)cnn12 (stereo in doubt) [I-1112]"
value = "9.00 to 9.70"

[[record]]
compound = "CNc1cc(Nc2cccn(C3CCN(CCF)CC3)c2=O)nc2c(C(=O)N[C@H]3CC[C@H]3O)cnn12"
value = "> 9.70"

[[record]]
compound = "CNC(=O)c1occc1Nc1cc(NC)n2ncc(C(=O)N[C@H]3CC[C@@H]3OC)c2n1 [I-1323]"
value = "8.00 to 9.00"

[[record]]
compound = "CNc1cc(Nc2cc(C)cn(-c3cnn(C)c3)c2=O)nc2c(C(=O)N[C@H]3C[C@H]3F)cnn12"
value = "> 9.70"

[[record]]
compound = "CCONC(=O)c1cnn2c(NC)cc(Nc3cccnc3OC)nc12"
value = "> 9.70"

[[record]]
compound = "CNc1cc(Nc2cccn(-c3cc(C)on3)c2=O)nc2c(C(N)=O)cnn12"
value = "> 9.70"

[[record]]
compound = "CNc1cc(Nc2cccn(-c3ccn(C)n3)c2=O)nc2c(C(=O)NC3CCC3)cnn12"
value = "> 9.70"

[[record]]
compound = "CNc1cc(-c2cn(C(C)C)c3ncc(Cl)cc23)nc2c(C(=O)NC3CC3)cnn12"
value = "9.00 to 9.70"

[[record]]
compound = "CNc1cc(Nc2c(F)ccn(-c3nccs3)c2=O)nc2c(C(=O)NC3CC3)cnn12"
value = "8.00 to 9.00"

[[record]]
compound = "CNc1cc(Nc2cccn([C@H]3CCC[C@H]3OC)c2=O)nc2c(C(=O)NC3CC3)cnn12 [I-525]"
value = "< 8.00"

[[record]]
compound = "CNc1cc(-c2cn(CCN3CCN(C)CC3)c3ncccc23)nc2c(C(=O)N[C@@H]3CC[C@H]3OC)cnn12"
value = "9.00 to 9.70"

[[record]]
compound = "CNc1cc(Nc2cccn([C@@H]3CCC[C@H]3OC)c2=O)nc2c(C(=O)N[C@@H]3C[C@@H]3F)cnn12"
value = "9.00 to 9.70"

[[record]]
compound = "CNc1cc(-c2nn([C@H]3CCOC3)c3ncccc23)nc2c(C(=O)N[C@@H]3C[C@@H]3F)cnn12"
value = "9.00 to 9.70"

[[record]]
compound = "CNc1cc(Nc2cccn([C@@H]3CCCOC3)c2=O)nc2c(C(=O)N[C@@H]3CC[C@H]3O)cnn12"
value = "> 9.70"

[[record]]
compound = "CNc1cc(Nc2cccn(C3CCOCC3)c2=O)nc2c(C(=O)N[C@@H]3CCC[C@@H](OC)C3)cnn12"
value = "9.00 to 9.70"

[[record]]
compound = "CNc1cc(Nc2cccc([C@@H]3CCCOC3)n2)nc2c(C(=O)N[C@H]3CC[C@H]3O)cnn12"
value = "> 9.70"

[[record]]
compound = "CNc1cc(Nc2cccn([C@H]3CC[C@@](C)(O)CC3)c2=O)nc2c(C(=O)NC3CC3)cnn12"
value = "9.00 to 9.70"

[[record]]
compound = "CNc1cc(Nc2cccc(N3CC(O)C3)n2)nc2c(C(=O)NC3CC3)cnn12"
value = "> 9.70"

[[record]]
compound = "CNc1cc(Nc2cccn(-c3nccs3)c2=O)nc2c(C(=O)NC3CCC3)cnn12"
value = "> 9.70"

[[record]]
compound = "CNc1cc(-c2cn([C@@H]3CCC[C@H]3OC)c3ncccc23)nc2c(C(=O)NC3CCC3O)cnn12 (mixture of isomers)"
value = "< 8.00"

[[record]]
compound = "CNc1cc(Nc2cccn(C3CCOCC3)c2=O)nc2c(C(=O)NCC(C)CO)cnn12 (centres unmarked)"
value = "> 9.70"

[[record]]
compound = "CNc1cc(Nc2cccn([C@@H]3CCCOC3)c2=O)nc2c(C(=O)N[C@H]3CCC[C@H](O)C3)cnn12 [I-781]"
value = "> 9.70"

[[record]]
compound = "CNc1cc(Nc2cccn([C@H]3CC[C@H]3O)c2=O)nc2c(C(=O)N[C@@H]3CC[C@H]3OC)cnn12"
value = "9.00 to 9.70"

[[record]]
compound = "CNc1cc(Nc2cc(C)cc(F)c2)nc2c(C(=O)NC3CC3)cnn12"
value = "> 9.70"

[[record]]
compound = "CNc1cc(Nc2cccn([C@@H]3CCC[C@@H]3OC)c2=O)nc2c(C(=O)N[C@@H]3C[C@@H]3F)cnn12 [I-537]"
value = "8.00 to 9.00"

[[record]]
compound = "CNc1cc(Nc2cc(Cl)cn(-c3ccnc(C)n3)c2=O)nc2c(C(=O)N[C@H]3C[C@H]3F)cnn12"
value = "> 9.70"


---

ASSAY_SYSTEM: human TYK2 (JH2domain-pseudokinase) (Homo sapiens (Human), UniProt P29597)
Sequence (P29597 556-888): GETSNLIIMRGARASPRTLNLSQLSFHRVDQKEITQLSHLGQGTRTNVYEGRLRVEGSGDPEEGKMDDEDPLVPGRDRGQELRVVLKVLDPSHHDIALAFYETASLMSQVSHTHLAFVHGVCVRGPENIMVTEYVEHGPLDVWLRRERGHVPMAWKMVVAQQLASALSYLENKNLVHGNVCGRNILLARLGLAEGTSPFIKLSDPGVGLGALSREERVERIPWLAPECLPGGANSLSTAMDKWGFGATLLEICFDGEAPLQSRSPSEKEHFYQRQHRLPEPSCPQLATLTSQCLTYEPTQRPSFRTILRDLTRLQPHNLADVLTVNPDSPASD
ASSAY_NOTES: TYK2 JH2 Domain Binding Assay (KINOMEscan)
pKd: −log10 of the molar value.
OUTCOME_MEASURE: pKd

[[record]]
compound = "CNc1cc(Nc2cccn(-c3ccn(C4CC4)n3)c2=O)nc2c(C(=O)N[C@@H]3C[C@@H]3F)cnn12 (stereo in doubt) [I-106]"
value = "> 9.70"

[[record]]
compound = "CNc1cc(Nc2cccn([C@H]3CCOC3)c2=O)nc2c(C(=O)NC3CC3)cnn12 [I-203]"
value = "> 9.70"

[[record]]
compound = "CNc1cc(Nc2cccn([C@H]3C[C@@H]3OC)c2=O)nc2c(C(=O)NC3CC3)cnn12 [I-1271]"
value = "> 9.70"

[[record]]
compound = "CNc1cc(Nc2cccnc2OC)nc2c(C(=O)N[C@@H]3CCC[C@@H](O)C3)cnn12 [I-497]"
value = "> 9.70"

[[record]]
compound = "CNc1cc(Nc2cccn([C@H]3CCCN(CCF)C3)c2=O)nc2c(C(=O)N[C@@H]3CC[C@H]3OC)cnn12 [I-1059]"
value = "> 9.70"

[[record]]
compound = "CNc1cc(Nc2cccn(C[C@H]3CCCCO3)c2=O)nc2c(C(=O)N[C@@H]3C[C@@H]3F)cnn12 [I-427]"
value = "9.00 to 9.70"

[[record]]
compound = "CNc1cc(Nc2cccnc2OC2CC2)nc2c(C(=O)N[C@H]3CCC[C@@H]3O)cnn12 [I-466]"
value = "9.00 to 9.70"

[[record]]
compound = "CNc1cc(Nc2cccn(-c3ccnc(C)n3)c2=O)nc2c(C(=O)N[C@@H]3C[C@@H]3F)cnn12 (stereo in doubt) [I-124]"
value = "> 9.70"

